# Tested on: 323965-272-R-J2-PDC complex spheroid growth, % test/control;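 also: compound exposure lasted 7 days starting three days after spheroid seeding; 100% = DMSO vehicle control wells with viability set relative to vehicle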
# experiment_notes: Anticancer human tumor 323965-272-R-J2-PDC patient-derived pancreatic carcinoma cell line growth inhibition [Asc]
# assay_conditions: second compound 0.949 µM; first compound 0.1 µM; stronger effect = lower value
observable: viability, T/C (%)
Give the value, in units of %, as a plain number.

compound="C#Cc1c(F)ccc2cc(O)cc(-c3ncc4c(N5CC6CCC(C5)N6)nc(OCC56CCCN5CC(F)C6)nc4c3F)c12 (stereo not given) + CCN1C(C(=O)NC23CCC(C(=O)O)(CC2)CC3)C(c2cccc(Cl)c2F)C2(C(=O)Nc3cc(Cl)ccc32)C12CCCCC2" value=104
compound="COc1c(OCCCN2CCOCC2)ccc2c3n(c(=NC(=O)c4cnc(N)nc4)nc12)CCN3 + CCN1C(C(=O)NC23CCC(C(=O)O)(CC2)CC3)C(c2cccc(Cl)c2F)C2(C(=O)Nc3cc(Cl)ccc32)C12CCCCC2" value=51
compound="O=C(c1cc(Cc2n[nH]c(=O)c3ccccc23)ccc1F)N1CCN(C(=O)C2CC2)CC1 + CCN1C(C(=O)NC23CCC(C(=O)O)(CC2)CC3)C(c2cccc(Cl)c2F)C2(C(=O)Nc3cc(Cl)ccc32)C12CCCCC2" value=106

C=CC(=O)N1CCN(c2nc(=O)n(-c3c(C)ccnc3C(C)C)c3nc(-c4c(O)cccc4F)c(F)cc23)C(C)C1 (stereo not given) + CCN1C(C(=O)NC23CCC(C(=O)O)(CC2)CC3)C(c2cccc(Cl)c2F)C2(C(=O)Nc3cc(Cl)ccc32)C12CCCCC2 has a reported viability, T/C of 68.3

Cn1ncnc1[C@H]1c2n[nH]c(=O)c3cc(F)cc(c23)N[C@@H]1c1ccc(F)cc1 + CCN1C(C(=O)NC23CCC(C(=O)O)(CC2)CC3)C(c2cccc(Cl)c2F)C2(C(=O)Nc3cc(Cl)ccc32)C12CCCCC2 has a reported viability, T/C of 93.1

O=C(c1ccc(F)c(F)c1Nc1ccc(I)cc1F)N1CC(O)([C@@H]2CCCCN2)C1 + CCN1C(C(=O)NC23CCC(C(=O)O)(CC2)CC3)C(c2cccc(Cl)c2F)C2(C(=O)Nc3cc(Cl)ccc32)C12CCCCC2 has a reported viability, T/C of 54

NC1CCC(NC2CC2c2ccccc2)CC1 (stereo not given) + CCN1C(C(=O)NC23CCC(C(=O)O)(CC2)CC3)C(c2cccc(Cl)c2F)C2(C(=O)Nc3cc(Cl)ccc32)C12CCCCC2 has a reported viability, T/C of 96

CNC(C)C(=O)NC1CN(S(=O)(=O)c2cccc(S(=O)(=O)N3CCC4CCC(C(=O)NC(c5ccccc5)c5ccccc5)N4C(=O)C(NC(=O)C(C)NC)C3)c2)CCC2CCC(C(=O)NC(c3ccccc3)c3ccccc3)N2C1=O (stereo not given) + CCN1C(C(=O)NC23CCC(C(=O)O)(CC2)CC3)C(c2cccc(Cl)c2F)C2(C(=O)Nc3cc(Cl)ccc32)C12CCCCC2 has a reported viability, T/C of 104

CCN1CCN(Cc2ccc(Nc3ncc(F)c(-c4cc(F)c5nc(C)n(C(C)C)c5c4)n3)nc2)CC1 + CCN1C(C(=O)NC23CCC(C(=O)O)(CC2)CC3)C(c2cccc(Cl)c2F)C2(C(=O)Nc3cc(Cl)ccc32)C12CCCCC2 has a reported viability, T/C of 85.8

C=C(F)C(=O)N1CCN(c2nc(OCC3CCCN3C)nc3c2CCN(c2cccc4cccc(Cl)c24)C3)CC1CC#N (stereo not given) + CCN1C(C(=O)NC23CCC(C(=O)O)(CC2)CC3)C(c2cccc(Cl)c2F)C2(C(=O)Nc3cc(Cl)ccc32)C12CCCCC2 has a reported viability, T/C of 65.9
